ASSAY REMARKS: Kinetic solubility in pH 7.4 universal buffer measured after 24 hrs by UV spectroscopic analysis
Format: physicochemical
ASSAY SETUP: read-out: Kinetic_solubility
MEASURED QUANTITY: solubility kinetic at 24 h (µM)

1. COc1ccc(CN2CCC(Nc3nc(Nc4ccc(NC(=O)CCCCCCC(=O)NO)cc4)nc4cc(OC)c(OC)cc34)CC2)cc1    4

---

Listed below: IC50 values for each entry.
EXPERIMENTAL SYSTEM: UniProtKB Q9UBN7
Sequence (Q9UBN7 whole entry): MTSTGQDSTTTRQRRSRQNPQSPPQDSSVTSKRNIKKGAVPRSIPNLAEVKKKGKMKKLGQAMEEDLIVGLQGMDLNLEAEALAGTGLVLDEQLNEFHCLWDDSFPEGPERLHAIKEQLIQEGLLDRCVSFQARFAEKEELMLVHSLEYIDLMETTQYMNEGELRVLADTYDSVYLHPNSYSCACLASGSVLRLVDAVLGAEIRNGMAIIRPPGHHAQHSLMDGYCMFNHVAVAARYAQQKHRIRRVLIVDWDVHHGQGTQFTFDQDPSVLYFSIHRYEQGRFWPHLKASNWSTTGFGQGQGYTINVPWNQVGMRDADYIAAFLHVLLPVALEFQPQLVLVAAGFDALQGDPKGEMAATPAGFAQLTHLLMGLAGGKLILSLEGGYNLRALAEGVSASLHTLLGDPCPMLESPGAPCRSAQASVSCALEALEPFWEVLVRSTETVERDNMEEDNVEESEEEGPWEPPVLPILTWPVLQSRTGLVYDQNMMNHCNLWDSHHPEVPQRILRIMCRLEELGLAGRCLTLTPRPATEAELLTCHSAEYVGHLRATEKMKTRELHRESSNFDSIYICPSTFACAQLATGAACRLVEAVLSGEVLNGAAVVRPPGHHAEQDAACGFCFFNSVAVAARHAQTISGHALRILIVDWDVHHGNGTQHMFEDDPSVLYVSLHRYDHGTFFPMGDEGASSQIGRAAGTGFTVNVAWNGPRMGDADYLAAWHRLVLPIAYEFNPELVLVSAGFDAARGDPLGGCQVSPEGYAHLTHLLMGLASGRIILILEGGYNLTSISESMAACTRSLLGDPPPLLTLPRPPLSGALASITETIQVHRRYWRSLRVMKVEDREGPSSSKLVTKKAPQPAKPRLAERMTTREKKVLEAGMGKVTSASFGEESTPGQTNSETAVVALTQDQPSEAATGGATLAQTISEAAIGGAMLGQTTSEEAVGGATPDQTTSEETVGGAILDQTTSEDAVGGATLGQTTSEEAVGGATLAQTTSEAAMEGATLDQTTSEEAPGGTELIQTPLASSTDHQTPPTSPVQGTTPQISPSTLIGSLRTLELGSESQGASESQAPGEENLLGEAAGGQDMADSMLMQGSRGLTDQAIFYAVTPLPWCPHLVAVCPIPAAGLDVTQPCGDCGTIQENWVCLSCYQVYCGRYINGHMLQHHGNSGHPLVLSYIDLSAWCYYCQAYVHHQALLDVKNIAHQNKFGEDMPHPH
MEASURED QUANTITY: IC50 (nM)

1. COc1ccc(CN2CCC(Nc3nc(Nc4ccc(NC(=O)CCCCCCC(=O)NO)cc4)nc4cc(OC)c(OC)cc34)CC2)cc1    2.57
2. COc1cc2nc(N3CCN(C(=O)CCCCCCC(=O)NO)CC3)nc(NC3CCN(Cc4ccccc4)CC3)c2cc1OC    35.5
3. COc1cc2nc(Nc3ccc(NC(=O)CCCCCCC(=O)NO)cc3)nc(NC3CCN(Cc4ccccc4Cl)CC3)c2cc1OC    9.09

---

ASSAY REMARKS: Intrinsic clearance in mouse liver microsomes at 3 uM preincubated for 5 mins followed by NADPH addition and measured up to 45 mins by LC-MS/MS analysis
Type: ADME, Microsome
ASSAY SETUP: read-out: CLH
MEASURED QUANTITY: microsomal CLint at 3 µM (µL/min/mg)

1) COc1ccc(CN2CCC(Nc3nc(Nc4ccc(NC(=O)CCCCCCC(=O)NO)cc4)nc4cc(OC)c(OC)cc34)CC2)cc1    52.2

---

ASSAY REMARKS: Intrinsic clearance in male rat liver microsomes at 3 uM preincubated for 5 mins followed by NADPH addition and measured up to 45 mins by LC-MS/MS analysis
Assay type: ADME, Microsome
ASSAY SETUP: read-out: CLH
MEASURED QUANTITY: microsomal CLint at 3 µM (µL/min/mg)

1) COc1ccc(CN2CCC(Nc3nc(Nc4ccc(NC(=O)CCCCCCC(=O)NO)cc4)nc4cc(OC)c(OC)cc34)CC2)cc1    16.3

---

ASSAY REMARKS: Half life in female rat liver microsomes at 3 uM preincubated for 5 mins followed by NADPH addition and measured up to 45 mins by LC-MS/MS analysis
Format: ADME, Microsome
MEASURED QUANTITY: half-life at 3 µM (min)

1) COc1ccc(CN2CCC(Nc3nc(Nc4ccc(NC(=O)CCCCCCC(=O)NO)cc4)nc4cc(OC)c(OC)cc34)CC2)cc1    104

---

EXPERIMENTAL SYSTEM: UniProtKB Q92769
Sequence (Q92769 whole entry): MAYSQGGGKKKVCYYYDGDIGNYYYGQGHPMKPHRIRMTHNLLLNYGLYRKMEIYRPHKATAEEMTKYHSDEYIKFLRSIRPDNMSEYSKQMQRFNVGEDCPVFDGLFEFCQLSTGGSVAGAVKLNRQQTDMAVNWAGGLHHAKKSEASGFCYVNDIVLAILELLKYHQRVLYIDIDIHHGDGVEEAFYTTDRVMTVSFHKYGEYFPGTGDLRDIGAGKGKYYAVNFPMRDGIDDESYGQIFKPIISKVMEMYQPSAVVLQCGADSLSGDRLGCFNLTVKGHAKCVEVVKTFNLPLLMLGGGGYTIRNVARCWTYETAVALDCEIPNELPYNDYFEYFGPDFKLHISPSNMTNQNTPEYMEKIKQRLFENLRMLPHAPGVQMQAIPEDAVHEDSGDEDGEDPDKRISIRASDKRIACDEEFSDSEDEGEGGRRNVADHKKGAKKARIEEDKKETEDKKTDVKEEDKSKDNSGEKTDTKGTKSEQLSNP
MEASURED QUANTITY: IC50 (nM)

1. COc1ccc(CN2CCC(Nc3nc(Nc4ccc(NC(=O)CCCCCCC(=O)NO)cc4)nc4cc(OC)c(OC)cc34)CC2)cc1    1130

---

Test system: MDA-MB-231
ASSAY REMARKS: Antiproliferative activity against human MDA-MB-231 cells incubated for 72 hrs by MTT assay
Type: functional, cell-based
ASSAY SETUP: MDA-MB-231, 72 h
pEC50: −log10 of the molar value.
MEASURED QUANTITY: pEC50

1) O=C(CCCCCCC(=O)Nc1ccc(Nc2nc(NC3CCN(Cc4ccccc4)CC3)c3sccc3n2)cc1)NO    5.54
2) COc1cc2nc(Nc3ccc(NC(=O)CCCCCCC(=O)NO)cc3)nc(NC3CCN(Cc4ccccc4Cl)CC3)c2cc1OC    5.39
3) COc1cc2nc(N3CCCN(C)CC3)nc(NC3CCN(Cc4ccccc4)CC3)c2cc1OC    5.54
4) COc1cc2nc(Nc3ccc(NC(=O)CCCCCCC(=O)NO)cc3)nc(NC3CCN(Cc4ccccc4)CC3)c2cc1OC    5.29
5) COc1ccc(CN2CCC(Nc3nc(Nc4ccc(NC(=O)CCCCCCC(=O)NO)cc4)nc4cc(OC)c(OC)cc34)CC2)cc1    5.20
6) COc1cc2nc(Nc3ccc(NC(=O)CCCCCCC(=O)NO)cc3)nc(NC3CCN(Cc4ccc(F)cc4)CC3)c2cc1OC    5.31
7) COc1cc2nc(N3CCN(C(=O)CCCCCCC(=O)NO)CC3)nc(NC3CCN(Cc4ccccc4)CC3)c2cc1OC    5.15
